Hey, just so you know, these numbers are from patent US7982043B2.

assay target: EGFR (Homo sapiens, UniProt P00533)
Sequence (P00533 25-1210): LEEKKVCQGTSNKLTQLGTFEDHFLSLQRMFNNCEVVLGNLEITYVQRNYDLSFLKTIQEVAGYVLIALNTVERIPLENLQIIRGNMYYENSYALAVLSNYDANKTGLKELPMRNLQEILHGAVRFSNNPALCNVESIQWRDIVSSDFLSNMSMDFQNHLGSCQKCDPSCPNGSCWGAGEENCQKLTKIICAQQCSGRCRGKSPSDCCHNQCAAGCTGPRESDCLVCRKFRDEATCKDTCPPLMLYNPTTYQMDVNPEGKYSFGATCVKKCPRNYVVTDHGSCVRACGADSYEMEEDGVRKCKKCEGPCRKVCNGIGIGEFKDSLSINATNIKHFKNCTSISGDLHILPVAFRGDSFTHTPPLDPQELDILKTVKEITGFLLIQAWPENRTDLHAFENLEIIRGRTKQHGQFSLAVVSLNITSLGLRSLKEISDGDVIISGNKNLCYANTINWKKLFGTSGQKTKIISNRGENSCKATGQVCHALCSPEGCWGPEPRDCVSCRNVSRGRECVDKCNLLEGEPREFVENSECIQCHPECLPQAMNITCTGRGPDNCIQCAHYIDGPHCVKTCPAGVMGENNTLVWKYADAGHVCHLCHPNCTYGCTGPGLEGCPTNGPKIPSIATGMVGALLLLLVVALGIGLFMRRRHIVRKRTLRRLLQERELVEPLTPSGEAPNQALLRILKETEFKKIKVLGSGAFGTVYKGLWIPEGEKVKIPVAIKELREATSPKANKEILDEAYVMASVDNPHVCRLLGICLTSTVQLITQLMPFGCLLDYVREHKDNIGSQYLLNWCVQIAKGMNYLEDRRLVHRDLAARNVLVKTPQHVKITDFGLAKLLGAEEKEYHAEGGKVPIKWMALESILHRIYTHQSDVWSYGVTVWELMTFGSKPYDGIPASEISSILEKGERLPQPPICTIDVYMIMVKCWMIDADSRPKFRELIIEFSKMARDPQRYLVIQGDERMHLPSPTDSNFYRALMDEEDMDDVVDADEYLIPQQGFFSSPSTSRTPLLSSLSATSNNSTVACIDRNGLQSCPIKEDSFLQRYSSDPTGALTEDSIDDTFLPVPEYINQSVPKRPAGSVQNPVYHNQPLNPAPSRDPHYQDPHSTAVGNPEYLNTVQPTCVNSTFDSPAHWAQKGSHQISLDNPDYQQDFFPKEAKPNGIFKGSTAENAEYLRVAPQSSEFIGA
measurement description: EGFR receptor phosphorylation in A431 cells (immunoblot)
Assay type: cell-based
Parameters: They also repressed EGF-dependent phosphorylation of EGFR in A431 cells; endogenous in cells; host or cells: A431
setup conditions: span over the three compounds; read-out: EGF-dependent phosphorylation of EGFR in A431 cells IC50
parameter: IC50

Input: What value of IC50 on EGFR (Homo sapiens, UniProt P00533) does "CCOc1cc2ncc(C#N)c(Nc3ccc(OCc4ccccc4)c(Cl)c3)c2cc1NC(=O)/C=C/CN(C)C" have?
Output: 3 to 7 nM

Input: What value of IC50 on EGFR (Homo sapiens, UniProt P00533) does "CCOc1cc2ncc(C#N)c(Nc3ccc(OCc4cccc(F)c4)c(Cl)c3)c2cc1NC(=O)/C=C/CN(C)C" have?
Output: 3 to 7 nM

###

assay target: mouse fibroblast cell line transfected with the HER-2 oncogene (3T3/neu) (UniProt P04626, cells depend on it, species not given)
measurement description: Cell proliferation assay (SRB), 3T3/neu
Format: cell-based
setup conditions: EGFR −, Her-2 +++; 2 days, SRB; read-out: CELL IC50 3T3/NEU (converted)
parameter: GI50

Input: // lookup GI50 for "COc1cc2c(Nc3ccc(Sc4nccn4C)c(Cl)c3)c(C#N)cnc2cc1OCCCN1CCOCC1"
Output: 0.347 µM

Input: // lookup GI50 for "CCOc1cc2ncc(C#N)c(Nc3ccc(Nc4nnc(C(F)(F)F)s4)c(Cl)c3)c2cc1NC(=O)/C=C/CN(C)C"
Output: 1.44 µM

Input: // lookup GI50 for "COc1cc2c(Nc3ccc4cn[nH]c4c3)c(C#N)cnc2cc1OCCCN1CCOCC1"
Output: > 10.9 µM

Input: // lookup GI50 for "COc1cc2ncc(C#N)c(Nc3ccc(Sc4nccn4C)c(Cl)c3)c2cc1NC(=O)/C=C/CN(C)C"
Output: 0.0365 µM

Input: // lookup GI50 for "CCOc1cc2ncc(C#N)c(Nc3ccc(Sc4nc(-c5ccccc5)cs4)c(C(F)(F)F)c3)c2cc1[N+](=O)[O-]"
Output: 1.15 µM

Input: // lookup GI50 for "CCOc1cc2ncc(C#N)c(Nc3ccc(OCc4ccccc4)c(Cl)c3)c2cc1NC(=O)/C=C/CN(C)C"
Output: 0.00522 µM

Input: // lookup GI50 for "CCOc1cc2c(Nc3ccc4cn[nH]c4c3)c(C#N)cnc2cc1OC"
Output: 13.4 µM

Input: // lookup GI50 for "CCOc1cc2ncc(C#N)c(Nc3ccc(Cn4ccnc4)c(Cl)c3)c2cc1[N+](=O)[O-]"
Output: > 11.1 µM

###

assay target: mouse fibroblast cell line transfected with the HER-2 oncogene (3T3/neu) (UniProt P04626, cells depend on it, species not given)
measurement description: Cell proliferation assay (SRB), 3T3/neu
Format: cell-based
setup conditions: EGFR −, Her-2 +++; 2 days, SRB; read-out: CELL IC50 3T3/NEU (converted)
For each of the compounds below, state its GI50.
Reply with just the number (in nM).

Input: // lookup GI50 for COc1cc2ncc(C#N)c(Nc3ccc(Sc4nccs4)c(Cl)c3)c2cc1NC(=O)/C=C/CN(C)C [Example 40]
Output: 3.63

Input: // lookup GI50 for CCOc1cc2ncc(C#N)c(Nc3ccc4c(c3)OCCO4)c2cc1OCC [Example 23]
Output: 958

Input: // lookup GI50 for COCCN(C)C/C=C/C(=O)Nc1cc2c(Nc3ccc(Sc4nccs4)c(Cl)c3)c(C#N)cnc2cc1OC [Example 71]
Output: 3.36

Input: // lookup GI50 for CCOc1cc2ncc(C#N)c(Nc3ccc(Sc4nc(C)cc(C)n4)c(Cl)c3)c2cc1NC(=O)/C=C/CN(C)C [Example 66]
Output: 17
